- target or system: human PAC1 (Homo sapiens)
- Sequence (P41586 21-468): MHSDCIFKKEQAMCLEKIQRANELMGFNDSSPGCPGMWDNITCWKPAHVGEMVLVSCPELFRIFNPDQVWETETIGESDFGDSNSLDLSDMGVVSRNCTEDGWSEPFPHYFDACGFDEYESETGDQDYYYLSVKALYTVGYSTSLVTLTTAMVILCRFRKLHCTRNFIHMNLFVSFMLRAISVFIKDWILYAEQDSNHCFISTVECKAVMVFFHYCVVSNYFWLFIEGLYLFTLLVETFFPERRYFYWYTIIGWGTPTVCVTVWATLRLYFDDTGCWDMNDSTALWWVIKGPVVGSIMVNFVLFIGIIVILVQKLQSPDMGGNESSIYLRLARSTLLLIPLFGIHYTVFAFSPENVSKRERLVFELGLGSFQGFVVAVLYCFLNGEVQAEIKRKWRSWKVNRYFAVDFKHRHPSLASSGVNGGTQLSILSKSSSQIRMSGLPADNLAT
- assay name: Filter binding assay, membranes of cells transiently transfected with human PAC1, 125I-labeled PACAP-27 tracer (Table 2)
- Design: expressed in transfected cells
- recorded conditions: read-out: Human PAC1 Receptor Binding
Where no end group is shown, it is not given here. The star is where a group is joined. Hexanoyl = CCCCCC(=O)*
Parameter pIC50: see the listing below.
Note on pIC50: it is the negative log10 of concentration, concentration in mol/L.

// worked examples, pIC50 included
# substance, target or system, pIC50
data = [
    ("Hexanoyl-HSDAVFTDNYTRLRKQVAAKKYWQSIKNKRYGGPSSGAPPPS [Agonist P230]", "human PAC1 (Homo sapiens)", 6.33),
    ("Hexanoyl-HSDAVFTDNYTRLRKQVAAVKYLQSIKNKRYGGPSSGAPPPS [Agonist P146]", "human PAC1 (Homo sapiens)", 5.81),
]

Here is another substance to look at.
[in] # lookup: pIC50 of Hexanoyl-HSDAVFTDNYTRLRKQVAAKKYLQSIKNKRYGGPSSGAPPPS [Agonist P31]
[out] 6.39
